Examples of binders with documented response (photon counts) follow.
Biological target: T1, biotin-MBP-tagged AtHAB1 (residues 172-511), Q9CAJ0
T1 chain: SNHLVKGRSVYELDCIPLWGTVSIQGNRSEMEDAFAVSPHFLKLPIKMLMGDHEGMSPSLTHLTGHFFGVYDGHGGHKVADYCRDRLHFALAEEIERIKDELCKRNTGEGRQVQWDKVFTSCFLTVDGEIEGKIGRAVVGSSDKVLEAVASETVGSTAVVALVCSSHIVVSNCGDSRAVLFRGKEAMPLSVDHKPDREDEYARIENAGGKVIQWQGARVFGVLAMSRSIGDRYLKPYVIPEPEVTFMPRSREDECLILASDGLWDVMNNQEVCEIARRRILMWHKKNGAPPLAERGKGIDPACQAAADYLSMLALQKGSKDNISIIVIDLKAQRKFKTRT
Assay: AlphaScreen
Conditions: chain shown with the change; DMSO (no ABA); parent: est. 2200; read off a plot
The response must contain the number and no unit.

Example binders with recorded response (photon counts):
BINDER	response (photon counts)
H6-SUMO-tagged FePYR1 I127V (protein) MEQQPAAAEPEVPAGLGLTAAEYAELQPTVEAYHRYAVGPGQCSSLVAQRIEAPAAAVWAIVRRFDCPQVYKHFIRSCALRPDPDAGDELRPGRLREVSVISGLPASTSTERLDLLDDARRAFGFTVTGGEHRLANYRSVTTVSELAPAAPAKICTVVLESYVVDVPEGNSEEDTRLFADTVVRLNLQKLKSLAEANATSAAAQATPPPQAE	2200
H6-SUMO-tagged FePYR1 I75A (protein) MEQQPAAAEPEVPAGLGLTAAEYAELQPTVEAYHRYAVGPGQCSSLVAQRIEAPAAAVWAIVRRFDCPQVYKHFARSCALRPDPDAGDELRPGRLREVSVISGLPASTSTERLDLLDDARRAFGFTITGGEHRLANYRSVTTVSELAPAAPAKICTVVLESYVVDVPEGNSEEDTRLFADTVVRLNLQKLKSLAEANATSAAAQATPPPQAE	2600

Continue with the binder presented below.
Which response (photon counts) is reported for this binder? H6-SUMO-tagged FePYR1 E131D (protein) MEQQPAAAEPEVPAGLGLTAAEYAELQPTVEAYHRYAVGPGQCSSLVAQRIEAPAAAVWAIVRRFDCPQVYKHFIRSCALRPDPDAGDELRPGRLREVSVISGLPASTSTERLDLLDDARRAFGFTITGGDHRLANYRSVTTVSELAPAAPAKICTVVLESYVVDVPEGNSEEDTRLFADTVVRLNLQKLKSLAEANATSAAAQATPPPQAE 1900
